- targetOrTestSystem: HLA-B*44:02 (Homo sapiens, UniProt P01889, A223V/A65T/A93T/A95T/D201E/D98Y/E176V/E187L/E204Q/E69K/G107R/H137Y/K202T/L105A/L119I/N104T/N87E/Q56L/Q94N/R106L/R155S/R180D/S101N/S121R/S35A/S48T/T118I/V36M/W191S/Y140D/Y91S)
- assaySummary: MHC binding assay (UV-ligand exchange, β2m ELISA)
- conditionNotes: peptide exchange yield, binding to HLA-B*44:02
measurementLabel: Peptide exchange

Below, 5 substances whose answers are already recorded.
>>> reading("209 (YEVDTVLRY; listed as Homo sapiens) [compound 209]")
"“++” (>20% = ++)"
>>> reading("231 (AEIHTAEI; listed as Homo sapiens) [compound 231]")
"“++” (>20% = ++)"
>>> reading("201 (GEHTSKATL; listed as Homo sapiens) [compound 201]")
"“++” (>20% = ++)"
>>> reading("237 (LEMPHYSTF; listed as Homo sapiens) [compound 237]")
"“++++” (>75% = ++++)"
>>> reading("197 (EEAKQVLFL; listed as Homo sapiens) [compound 197]")
"“++” (>20% = ++)"

Task: Give recorded Peptide exchange. 260 (EEAPLVTKAF; listed as Homo sapiens) [compound 260]
Result: “++” (>20% = ++)

Task: Could you please provide reported Peptide exchange for 198 (FELPTGAGL; listed as Homo sapiens) [compound 198] ? Thanks!
Result: “++” (>20% = ++)
